The reported numbers originate from patent US20260263485A1.

assay: Identification of metabolites of ENT-03S in rat bile samples (UPLC-MS/MS); settings: pooled bile 0-24 h, bile duct cannulated male SD rats, 10 mg/kg ENT-03S SC; relative XIC peak area
Consider the following molecules and their measured Metabolite peak area percentages Rat Bile readings.
measurement.kind: Metabolite peak area percentages Rat Bile (%)

{"molecule": "C[C@H](CCC(=O)NCCS(=O)(=O)O)[C@H]1CCC2C3C(CC[C@@]21C)[C@@]1(C)CC[C@H](NCCC(=O)O)C[C@@H]1C[C@H]3O (stereo partly shown) [M3-RB]", "observed.value": 2.27}
{"molecule": "C[C@H](CCC[C@H](C)C(=O)O)[C@H]1CCC2C3C(CC[C@@]21C)[C@@]1(C)CC[C@H](NCCCNCCCCNCCC(=O)O)C[C@@H]1C[C@H]3O (stereo partly drawn) [ENT-25S]", "observed.value": 9.52}
{"molecule": "C[C@H](C[C@H](C)C(=O)O)[C@H]1CCC2C3C(CC[C@@]21C)[C@@]1(C)CC[C@H](NCCC(=O)O)C[C@@H]1C[C@H]3O (stereo partly shown) [M16-RB]", "observed.value": 0.69}
{"molecule": "C[C@H](CCC[C@H](C)C(=O)O)[C@H]1CCC2C3C(CC[C@@]21C)[C@@]1(C)CC[C@H](NCCCNCCCC(=O)O)C[C@@H]1C[C@H]3O (stereo partly shown) [M10-PU/M14-RB]", "observed.value": 3.23}

====

test: Plasma pharmacokinetics of ENT-03S cyclodextrin formulation after subcutaneous injection; assay type: in vivo, rat; details: male, Sprague-Dawley, rat, plasma, sc, 10 mg/kg, 20% beta-cyclodextrin formulation; 10 mg/kg SC; male SD rats; 24 h; individual rats; read-out: Concentration (ng/ml) Rat 1-3

{"compound": "C[C@H](CCC[C@H](C)C(=O)O)[C@H]1CCC2C3C(CC[C@@]21C)[C@@]1(C)CC[C@H](NCCCNCCCCNCCCN)C[C@@H]1C[C@H]3O (stereo partly drawn) [ENT-03S]", "concentration at 24 h, ng/mL": 10300}

====

assay: Plasma pharmacokinetics of ENT-03S cyclodextrin formulation after subcutaneous injection; assay type: in vivo, rat; settings: male, Sprague-Dawley, rat, plasma, sc, 10 mg/kg, 20% beta-cyclodextrin formulation; 10 mg/kg SC; male SD rats; 4 h; mean; read-out: Concentration Mean

{"compound": "C[C@H](CCC[C@H](C)C(=O)O)[C@H]1CCC2C3C(CC[C@@]21C)[C@@]1(C)CC[C@H](NCCCNCCCCNCCCN)C[C@@H]1C[C@H]3O (stereo partly drawn) [ENT-03S]", "concentration at 4 h [ng/mL]": 26900}

====

assay: Identification of metabolites of ENT-03S in rat bile samples (UPLC-MS/MS); conditions: pooled bile, bile duct cannulated male SD rats, 10 mg/kg ENT-03S SC; XIC peak area
Metabolite peak area Rat Bile by entry:
measurement.kind: Metabolite peak area Rat Bile

{"molecule": "C[C@H](CCC[C@H](C)C(=O)O)[C@H]1CCC2C3C(CC[C@@]21C)[C@@]1(C)CC[C@H](NCCCNCCCCNCCC(=O)O)C[C@@H]1C[C@H]3O (stereo partly drawn) [ENT-25S]", "measurement.kind": "Metabolite peak area Rat Bile", "observed.value": "1.17E+07"}
{"molecule": "C[C@H](CCC[C@H](C)C(=O)O)[C@H]1CCC2C3C(CC[C@@]21C)[C@@]1(C)CC[C@H](NCCCNCCCC(=O)O)C[C@@H]1C[C@H]3O (stereo partly shown) [M10-PU/M14-RB]", "measurement.kind": "Metabolite peak area Rat Bile", "observed.value": "3.98E+06"}
{"molecule": "C[C@H](C[C@H](C)C(=O)O)[C@H]1CCC2C3C(CC[C@@]21C)[C@@]1(C)CC[C@H](NCCC(=O)O)C[C@@H]1C[C@H]3O (stereo partly shown) [M16-RB]", "measurement.kind": "Metabolite peak area Rat Bile", "observed.value": "8.45E+05"}
{"molecule": "C[C@H](CCC(=O)NCCS(=O)(=O)O)[C@H]1CCC2C3C(CC[C@@]21C)[C@@]1(C)CC[C@H](NCCC(=O)O)C[C@@H]1C[C@H]3O (stereo partly shown) [M3-RB]", "measurement.kind": "Metabolite peak area Rat Bile", "observed.value": "2.80E+06"}

====

assay: Plasma pharmacokinetics of ENT-03S cyclodextrin formulation after subcutaneous injection; format: in vivo, rat; conditions: male, Sprague-Dawley, rat, plasma, sc, 10 mg/kg, 20% beta-cyclodextrin formulation; SC Dose 10 mg/kg; male SD rats; plasma; individual rats; read-out: AUClnf

{"compound": "C[C@H](CCC[C@H](C)C(=O)O)[C@H]1CCC2C3C(CC[C@@]21C)[C@@]1(C)CC[C@H](NCCCNCCCCNCCCN)C[C@@H]1C[C@H]3O (stereo partly drawn) [ENT-03S]", "AUC, µg·h/mL": 767}

====

assay: Plasma pharmacokinetics of aqueous ENT-03S solution without cyclodextrin after subcutaneous injection; format: in vivo, rat; settings: male, Sprague-Dawley, rat, plasma, sc, 10 mg/kg, 2 mg/ml, 10 mg/kg SC, male SD rats, 0.25 h, mean

{"compound": "C[C@H](CCC[C@H](C)C(=O)O)[C@H]1CCC2C3C(CC[C@@]21C)[C@@]1(C)CC[C@H](NCCCNCCCCNCCCN)C[C@@H]1C[C@H]3O (stereo partly drawn) [ENT-03S]", "unit.annotation": "µg/mL", "concentration at 0.25 h": 1.26}

====

Test: Plasma pharmacokinetics of aqueous ENT-03S solution without cyclodextrin after subcutaneous injection
Assay type: in vivo, rat
Settings: male, Sprague-Dawley, rat, plasma, sc, 10 mg/kg, 2 mg/ml, 10 mg/kg SC, male SD rats, 2 h, mean, read-out: Concentration Mean
Procedure: The benefits provided by the aminosterol-cyclodextrin formulation disclosed herein can be appreciated by comparing the pharmacokinetics of an aqueous solution of ENT-03S in the absence of cyclodextrin at a concentration of ENT-03S of 2 mg/ml at […]. The dose chosen was the maximum ENT-03S concentration that could be delivered to the rat without causing visible local tissue necrosis. The experiment was conducted in male Sprague-Dawley rats following the same protocol as above. […]

{"molecule": "C[C@H](CCC[C@H](C)C(=O)O)[C@H]1CCC2C3C(CC[C@@]21C)[C@@]1(C)CC[C@H](NCCCNCCCCNCCCN)C[C@@H]1C[C@H]3O (stereo partly drawn) [ENT-03S]", "concentration at 2 h [ng/mL]": 7630}

====

test: Plasma pharmacokinetics of ENT-03S cyclodextrin formulation after subcutaneous injection; format: in vivo, rat; conditions: male, Sprague-Dawley, rat, plasma, sc, 10 mg/kg, 20% beta-cyclodextrin formulation; SC Dose 10 mg/kg; male SD rats; plasma; individual rats; read-out: Cmax

{"molecule": "C[C@H](CCC[C@H](C)C(=O)O)[C@H]1CCC2C3C(CC[C@@]21C)[C@@]1(C)CC[C@H](NCCCNCCCCNCCCN)C[C@@H]1C[C@H]3O (stereo partly drawn) [ENT-03S]", "unit.annotation": "ng/mL", "Cmax": 31300}

====

Test: Plasma pharmacokinetics of aqueous ENT-03S solution without cyclodextrin after subcutaneous injection
Assay type: in vivo, rat
Conditions: male, Sprague-Dawley, rat, plasma, sc, 10 mg/kg, 2 mg/ml, 10 mg/kg SC, male SD rats, mean, read-out: Cmax Mean
Experimental: The benefits provided by the aminosterol-cyclodextrin formulation disclosed herein can be appreciated by comparing the pharmacokinetics of an aqueous solution of ENT-03S in the absence of cyclodextrin at a concentration of ENT-03S of 2 mg/ml at […]. The dose chosen was the maximum ENT-03S concentration that could be delivered to the rat without causing visible local tissue necrosis. The experiment was conducted in male Sprague-Dawley rats following the same protocol as above. […]

{"compound": "C[C@H](CCC[C@H](C)C(=O)O)[C@H]1CCC2C3C(CC[C@@]21C)[C@@]1(C)CC[C@H](NCCCNCCCCNCCCN)C[C@@H]1C[C@H]3O (stereo partly drawn) [ENT-03S]", "unit.annotation": "ng/mL", "Cmax": 45900}

====

assay: Plasma pharmacokinetics of ENT-03S cyclodextrin formulation after subcutaneous injection; format: in vivo, rat; conditions: male, Sprague-Dawley, rat, plasma, sc, 10 mg/kg, 20% beta-cyclodextrin formulation; 10 mg/kg SC; male SD rats; 0.5 h; individual rats; read-out: Concentration (ng/ml) Rat 1-3

{"molecule": "C[C@H](CCC[C@H](C)C(=O)O)[C@H]1CCC2C3C(CC[C@@]21C)[C@@]1(C)CC[C@H](NCCCNCCCCNCCCN)C[C@@H]1C[C@H]3O (stereo partly drawn) [ENT-03S]", "concentration at 0.5 h (ng/mL)": 25700}

====

assay: Plasma pharmacokinetics of ENT-03S cyclodextrin formulation after subcutaneous injection; assay type: in vivo, rat; conditions: male, Sprague-Dawley, rat, plasma, sc, 10 mg/kg, 20% beta-cyclodextrin formulation; 10 mg/kg SC; male SD rats; 2 h; mean; read-out: Concentration Mean

{"compound": "C[C@H](CCC[C@H](C)C(=O)O)[C@H]1CCC2C3C(CC[C@@]21C)[C@@]1(C)CC[C@H](NCCCNCCCCNCCCN)C[C@@H]1C[C@H]3O (stereo partly drawn) [ENT-03S]", "concentration at 2 h / ng/mL": 32400}
